Assay: NCI Yeast Anticancer Drug Screen. Data for the sgs1 mgt1 strain (AID 161);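 also: 0% = growth of cultures given vehicle only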
Conditions: S. cerevisiae sgs1 mgt1 strain, at 50.0 µM, stronger effect = higher value
The panel holds about 79,000 compounds, 15% with a hit somewhere; the sample as a whole holds those more often.
Catalogue of growth inhibition readings, one per entry.
Kindly provide the numeric value in % only, without the unit symbol.

O=C(O)/C=C/C(=O)Nc1cccc(C(F)(F)F)c1 : -17.5
CC(C)(C)C(=O)CC(=O)C(C)(C)C.[Cu] : -4.2
CCc1c(CNc2ccc(C(=O)NC(CC(=O)O)C(=O)O)cc2)ccc2nc(N)nc(N)c12 (centres undefined) : 11.9
COC(=O)C(=O)C(C(=O)C=C(C)C)C(=O)C(=O)Nc1cc(C(F)(F)F)ccc1Cl (centres undefined) : 6
CCOC(=O)C(=O)C1CC(c2ccccc2)=NNC1=O (centres undefined) : 12.9
NC(N)=NS(=O)(=O)c1ccc(Nc2c3ccccc3nc3c(C(=O)N4CCN(CCO)CC4)cccc23)cc1 : 2.95
O=P(O)(OCCOc1ccccc1)OCCOc1ccccc1 : 8.25
COC1CCC(/C(C#N)=C/C2CCC(N(C)C)CC2)CC1 (centres undefined) : 20.9

Q: Given CCOC(=O)C1C(=S)NC(=O)C1C#N (centres undefined) , state its recorded growth inhibition.
A: 1.35

Q: Same for COCC(O)CC#N (centres undefined)
A: -3.65

Q: Same for "COc1cc(CNCCO)cc(OC)c1"
A: -1.35
